Test system: C1 cells
Test: Killing of Philadelphia negative C1 acute lymphoblastic leukemia cells in culture (colony assay)
Type: cell-based
Settings: C1 Philadelphia negative ALL cells, methylcellulose colony count in 5-7 days
Procedure: C1 (at 2×10^4 cells/ml) were plated in 1 ml volumes, in the absence of exogenous growth factors, into 35 mm Petri dishes (Nunc, Gibco) containing alpha MEM (Gibco) plus 10% FCS (Cansera Rexdale, Ont.) in 0.9% (vol/vol) methylcellulose (Fluka, Switzerland). Cultures were set up at 37° C. with 5% CO2 in a humidified atmosphere. Colonies consisting of more than 20 cells were counted in 5-7 days using an inverted microscope. For further information, see Leukemia, Vol. 6, No. 1, 1992, pg. […]

Compound | Study System | IC50
N#C/C(=C\C=C\c1ccco1)C(=O)NCc1ccc(O)c(O)c1 [CRH-48] | C1 cells | ≥ 250 nM
N#C/C(=C\C=C\c1cc(O)ccc1O)C(=O)NCc1ccccc1 [CRO-70] | C1 cells | > 500 nM
COc1cc(/C=C/C=C/C=C(\C#N)C(=O)NCc2ccc(O)c(O)c2)ccc1O [CRT-67] | C1 cells | > 500 nM
N#C/C(=C\c1ccc(/C=C/c2ccccc2)cc1)C(=O)NCc1ccncc1 [CRS-75] | C1 cells | ≥ 500 nM
N#C/C(=C\C=C\c1cccnc1)C(=O)NCc1ccc(O)c(O)c1 [CRH-58] | C1 cells | > 500 nM

---

Overview of reported pIC50 across a group of molecules:
Test system: OCI-AML-3 cells
Test: Killing of AML-3 acute myeloid leukemia cells in culture (colony assay)
Format: cell-based
Conditions: Homo sapiens, methylcellulose colony count at 5-6 days
Protocol: OCI-AML-3 cells were plated in 35 mm petri dishes (Nunc, Gibco) in 1 ml volumes at a density of 3.3×10^3 cells/ml, in the absence of exogenous growth factors, containing alpha MEM plus 30% FCS (Cansera, Rexdale Ont.), and 0.9% (vol/vol) methylcellulose (Fluka, Switzerland) and the indicated concentrations of for various test compounds described above. […] Colonies containing more than 20 cells were scored, using an inverted microscope, at 5-6 days.
pIC50: −log10 of the molar value.

Chem Smiles | Study System | pIC50
N#C/C(=C\C=C\c1cc(O)ccc1O)C(=O)NCc1ccccc1 | OCI-AML-3 cells | < 6.30
N#C/C(=C\C=C\c1cccnc1)C(=O)NCc1ccc(O)c(O)c1 | OCI-AML-3 cells | < 6.30
N#C/C(=C\C=C\c1ccco1)C(=O)NCc1ccc(O)c(O)c1 | OCI-AML-3 cells | 6.64
N#C/C(=C\c1ccc(/C=C/c2ccccc2)cc1)C(=O)NCc1ccncc1 | OCI-AML-3 cells | ≤ 6.30
COc1cc(/C=C/C=C/C=C(\C#N)C(=O)NCc2ccc(O)c(O)c2)ccc1O | OCI-AML-3 cells | < 6.30

---

System: Z119 cells
Test: Killing of Philadelphia positive Z119 acute lymphoblastic leukemia cells in culture (colony assay)
Type: cell-based
Settings: Z119 Philadelphia positive ALL cells, methylcellulose colony count at 7-9 days; read-out: ALL (Z 119) IC50
pIC50: −log10 of the molar value.
Overview of reported pIC50 across a group of compounds:
Readout Label: pIC50

Chem Smiles | Test Value
N#C/C(=C\C=C\c1cccnc1)C(=O)NCc1ccccc1 | < 6.00
N#C\C(=C/C=C/C=C/c1ccc(O)c(O)c1)C(=O)NCc1ccccc1 | > 6.30
N#C/C(=C\c1ccc(/C=C/c2ccncc2)cc1)C(=O)NCc1ccncc1 | < 6.00
N#C/C(=C\C=C\c1cc(O)ccc1O)C(=O)NCc1ccccc1 | 6.59
N#C/C(=C\C=C\c1cccnc1)C(=O)NCc1ccc(O)c(O)c1 | 6.59
N#C/C(=C\C=C\c1cccs1)C(=O)NCc1ccc(O)c(O)c1 | > 6.30
N#C/C(=C\C(Cl)=C\c1ccccc1)C(=O)NCc1ccc(O)c(O)c1 | > 6.90
N#C/C(=C\c1ccc(/C=C/c2ccccc2)cc1)C(=O)NCc1ccncc1 | < 6.00
COc1cc(/C=C/C=C/C=C(\C#N)C(=O)NCc2ccc(O)c(O)c2)ccc1O | ≥ 6.30
N#C/C(=C\c1ccc(/C=C/c2ccncc2)cc1)C(=O)NCc1ccc(O)c(O)c1 | < 6.00
N#C/C(=C\C=C\c1ccco1)C(=O)NCc1ccc(O)c(O)c1 | 6.30 to 6.60
